Assay: Primary qHTS for inhibitors of nuclear receptor binding SET domain protein 2 (NSD2) in an isogenic RCH-ACV NSD2 p.E1099K mutant (9B) (AID 1645876); also: nearly all actives have a fitted effect of over 70% in size
Conditions: RCH-ACV (leukaemia line) NSD2 E1099K (9B) viability, CellTiter-Glo, 72 h; series mostly up to 44.9 µM
Records with an inconclusive call do not appear. Active and inactive are the calls of the source. Calls follow the shape of the dose curve; as a rule, active = well fitted inhibition curve with a large enough effect; inconclusive = small, poorly fitted or top-dose-only effect; inactive = flat fitted curve, though single readings scatter. Where a SMILES comes first, the peptide text is derived from it. [ ]: non-standard residue; d: D form. Dip = N[C@H](C(=O)O)C(c1ccccc1)c1ccccc1
Can you answer with just one of these options? class 1 (active), class 0 (inactive)

**Query** Fill in: this test's call for NCCCC[C@H](NC(=O)[C@@H](NC(=O)[C@H](Cc1c[nH]c2ccccc12)NC(=O)[C@H](CCCCN)NC(=O)[C@H](CCCCN)NC(=O)[C@H](Cc1c[nH]c2ccccc12)NC(=O)[C@H](Cc1c[nH]c2ccccc12)NC(=O)[C@H](CCCCN)NC(=O)[C@@H](N)CCCCN)C(c1ccccc1)c1ccccc1)C(N)=O (H-KKWWKKW[Dip]K-NH2) is ___
**Result** class 1

**Query** What was the test verdict on `O=C(/C=C/c1ccc2ccccc2n1)c1ccncc1` ?
**Result** class 1

**Query** Outcome? `Nc1nonc1-c1nc2cnccc2n1C1CCCCC1`
**Result** class 1

**Query** What classification did `c1ccc(-c2cc(CCC3CCNCC3)c3ccccc3n2)cc1` end up with in this test?
**Result** class 1

**Query** For `Cc1ccc(C(=O)OCc2ccc([C@@H](CN)C(=O)Nc3ccc4cnccc4c3)cc2)c(C)c1` , which call appears in the assay record?
**Result** class 1

**Query** Record lookup: outcome of this test for `C[C@]1(C(=O)N(CCCC(=O)O)Cc2cccc(Cl)c2)CCN1C(=O)c1csc2ccccc12` ?
**Result** class 0

**Query** Identify the outcome logged in this assay for the compound shown: `C[C@H]1C[C@@H](n2c(Nc3ccc(OC(F)(F)F)cc3)nc3cc(CCC(=O)O)ccc32)CC(C)(C)C1`
**Result** class 0

**Query** Please indicate how the test categorized `Oc1cccc(Nc2ncnc3sc4c(c23)CCCC4)c1` .
**Result** class 1

**Query** Which outcome was assigned to `CCN1CCN(c2ccc(Nc3ccc(-c4ccc(C(N)=O)cc4)n4ncnc34)cc2)CC1` in this test?
**Result** class 1

**Query** // param item: `O=C1NC(=O)/C(=C\c2ccc(-c3ccc(F)cc3O)o2)S1` ; yields the recorded call
**Result** class 1

**Query** // outcome(item) with item = `Cc1cc(OCCCc2c3n(c4c(-c5c(C)nn(C)c5C)c(Cl)ccc24)[C@H](C)CN(c2cn(C)c4ccc(C(=O)O)cc24)C3=O)cc(C)c1Cl`
**Result** class 1

**Query** Per the records of this test, what outcome belongs to `CCNC(=O)Nc1ccc(-c2nc3c(c(N4CCOC[C@@H]4C)n2)CCN(C2COC2)C3)cc1` ?
**Result** class 1

**Query** Tell me the recorded outcome of this test for `CCc1cc(/C(C)=N/OCc2ccc(C3CCCCC3)c(C(F)(F)F)c2)ccc1CN1CC(C(=O)O)C1` .
**Result** class 0

**Query** Which result was noted for this compound in the test: `CC(C)(C)NC(=O)c1cncn1C1CCN(c2ccc(-c3nnc(C(F)(F)F)o3)cn2)CC1`
**Result** class 1

**Query** Could you check what this test reported for `[O-][n+]1cccc(-c2nc3c(Cl)cccc3cc2[C@@H](Nc2ncnc3cccnc23)C(F)(F)F)c1` ?
**Result** class 1

**Query** What did this assay record as the result for `O=C(O/N=C1\c2ccccc2-c2nc3ccccc3nc21)c1ccco1` ?
**Result** class 1

**Query** Could you please tell me the result logged for `O=c1c(-c2ccc(O)cc2)coc2cc(O[C@@H]3O[C@H](CO)[C@@H](O)[C@H](O)[C@H]3O)ccc12` in this assay?
**Result** class 1
